The reported numbers originate from PubChem BioAssay (NCI).

TGI by entry:
System: MCF7 breast
experimentalDetails: NCI tumour cell line growth inhibition, 48 h

compound	measuredOn	TGI
Cc1nc2cc(O)c(O)cc2cc1Oc1ccc(NC(=O)Nc2ccc(Cl)c(Cl)c2)cc1	MCF7 breast	> 32.5 µM
CCOC(=O)Nc1ccc(S(=O)(=O)Nc2ccc(Br)cc2)cc1	MCF7 breast	75.7 µM
COCOc1cc(OC)ccc1C=O	MCF7 breast	> 100 µM

###

Tested on: SN12C renal
experimentalDetails: NCI tumour cell line growth inhibition, 48 h

compound	TGI
Cc1nc2c(=O)[nH]c(=O)nc-2n(CCO)c1C	> 100 µM
O=C(/C=C1\N=C(c2ccccc2)N(c2ccc3c(c2)Sc2cc(N4C(=O)/C(=C/C(=O)/C=C/c5ccccc5)N=C4c4ccccc4)ccc2N3)C1=O)/C=C/c1ccccc1	> 100 µM
OC(Cn1cncn1)(Cn1cncn1)c1ccc(Cl)cc1Cl	> 100 µM
COc1ccc(C(=O)Nc2cccc(C3CC(=O)c4c(cc(OC)c(OC)c4OC)O3)c2)cc1 (stereo not given)	> 100 µM
COc1ccc(Cc2ccccc2C(=O)O)c2ccccc12	> 100 µM
Cc1ccc(Nc2ncnc3sc(SCc4ccccc4)nc23)cc1	> 100 µM
COc1cc(-c2ccc(-c3ccc(C(=N)N)s3)s2)cc(OC)c1OC	3.17 µM
COc1cc(/C=C/C(=O)c2ccc(Nc3nc(Nc4ccc(F)cc4)nc(Nc4ccc(F)cc4)n3)cc2)cc(OC)c1OC	> 100 µM
Cc1ccccc1NC(=O)NC(CC(N)=O)c1ccc2c(c1)nc(-c1cccc(Oc3ccc(C(C)(C)C)cc3)c1)n2CCCN1CCCCC1C (stereo not given)	11.1 µM
O=[N+]([O-])c1ccccc1S(=O)(=O)N1CCCc2cc(Cl)ccc21	> 100 µM
CC1CCN(c2nnc(Cl)cc2C(=O)c2ccccc2)CC1	> 100 µM
CCOc1ccc(NC(=O)C2=C(C)NC(C)=C(C(=O)Nc3ccc(OCC)cc3)C2c2ccc([N+](=O)[O-])cc2)cc1	> 100 µM
CN(C)CCn1cc(-c2ccc3c(Nc4ccc(CC(=O)Nc5cccc(F)c5)cc4)ncnc3c2)cn1	3.64 µM
Cc1nc2cc(O)c(O)cc2cc1Oc1ccc(NC(=O)Nc2ccc(Cl)c(Cl)c2)cc1	30.3 µM
Cc1ccccc1NC(=O)c1[nH]c(=S)nc(N)c1-c1ccccc1C	> 100 µM
CC(C)(C)c1cc(C(O)(C(F)(F)F)C(F)(F)F)c2c(c1)C(C(F)(F)F)(C(F)(F)F)OC(c1ccccc1)(C(C)(C)C)N2 (stereo not given)	16.6 µM
O=c1c2ccccc2nc(-c2ccc(Cl)cc2)n1O	> 100 µM
O=C(CC1C(=O)Nc2ccccc2S1=O)Nc1cccc(Cl)c1 (stereo not given)	> 100 µM
O=Cc1ccc(C(F)(F)F)cc1.[C-]#[O+].[C-]#[O+].[C-]#[O+].[Cr]	82.1 µM
CC(C)C[C@H](NC(=O)[C@@H](Cc1cccc2ccccc12)NC(=O)N1CCOCC1)B(O)O	20.4 µM
